# credit: PubChem BioAssay AID588726

study target: Fructose-bisphosphate aldolase (Mycobacterium tuberculosis (strain ATCC 25618 / H37Rv)) (UniProt P9WQA3)
Sequence (P9WQA3 whole entry, looked up): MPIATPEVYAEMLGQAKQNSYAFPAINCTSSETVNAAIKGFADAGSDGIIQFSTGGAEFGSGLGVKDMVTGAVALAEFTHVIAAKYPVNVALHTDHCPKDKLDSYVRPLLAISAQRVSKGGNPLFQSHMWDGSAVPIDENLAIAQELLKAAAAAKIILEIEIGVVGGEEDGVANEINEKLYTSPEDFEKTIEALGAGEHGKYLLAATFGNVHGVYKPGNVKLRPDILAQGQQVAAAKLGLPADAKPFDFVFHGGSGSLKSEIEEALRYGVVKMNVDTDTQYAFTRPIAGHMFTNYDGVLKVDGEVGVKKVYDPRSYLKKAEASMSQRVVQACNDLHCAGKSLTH
assay details: Mtb FBA enzyme inhibitors, primary screen, biochemical, fluorescence, strain H37Rv (AID 588726);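 further: 0% = vehicle and 100% = reference inhibitor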
condition: purified M. tuberculosis FBA, fluorescence read-out, at 1 µM, stronger effect = higher value
Hit rate of the full screen: of about 360,000 compounds, about 8,200 (2.3%) were called active. For the sample, actives were picked, then their nearest neighbours and some compounds at random.
Could you please report measured inhibition for the items listed next?

1. O=C(NCC(c1cccs1)N1CCOCC1)c1cc(-c2ccccn2)nc2ccccc12 (centres undefined) = 5.77% (inactive)

I would be grateful if you could provide inhibition for each of the following entries.
1. CCCCN(C)CCCNC(=O)c1cc(-c2cccs2)nc2ccccc12
2. CC(C)NC(=O)C(=O)NCCN1CCN(S(=O)(=O)c2ccc(Cl)cc2)CC1
3. CCCCc1nc(NCc2ccccc2)c(C#N)c2c1CCCC2

Result:
1: 140% (active); 2: 2.59% (inactive); 3: 0.15% (inactive)
